Listing of recorded EC50 by entry.
Target: T1, hCEACAM5, human CEACAM5 ECD (35-685) (human, UniProt P06731 35-685)
T1 construct: produced in HEK293; also called human CEACAM5 protein; human CEACAM5 extracellular domain
T1 sequence: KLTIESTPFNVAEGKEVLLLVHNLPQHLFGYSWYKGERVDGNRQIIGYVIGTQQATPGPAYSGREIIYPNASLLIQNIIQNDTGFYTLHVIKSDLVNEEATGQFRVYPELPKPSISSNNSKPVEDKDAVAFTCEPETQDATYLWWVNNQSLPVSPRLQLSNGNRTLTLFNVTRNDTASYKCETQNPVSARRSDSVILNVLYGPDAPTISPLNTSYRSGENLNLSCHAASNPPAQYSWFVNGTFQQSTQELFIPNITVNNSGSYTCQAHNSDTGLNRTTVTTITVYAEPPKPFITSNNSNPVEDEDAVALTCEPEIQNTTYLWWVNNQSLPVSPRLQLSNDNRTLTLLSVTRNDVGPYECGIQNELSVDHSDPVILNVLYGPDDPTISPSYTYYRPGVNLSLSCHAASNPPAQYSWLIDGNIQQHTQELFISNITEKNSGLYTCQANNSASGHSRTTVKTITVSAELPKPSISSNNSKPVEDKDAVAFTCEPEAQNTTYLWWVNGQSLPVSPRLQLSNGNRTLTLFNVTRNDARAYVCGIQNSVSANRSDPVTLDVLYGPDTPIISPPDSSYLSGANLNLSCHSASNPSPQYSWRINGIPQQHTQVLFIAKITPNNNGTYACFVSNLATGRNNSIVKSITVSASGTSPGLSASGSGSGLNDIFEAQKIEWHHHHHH
Experiment: ELISA, coated CEACAM5
The reply should contain only the number, in nM.

Field: example entries. Status: answers known.
BINDER: antibody MAb2 (antibody, mouse IgG1, V domains shown, Murine IgG1, kappa; Rows are tied to the label as printed) VH: EVQLQESGGVLVKPGGSLKLSCAASGFVFSSYDMSWVRQTPEKRLEWVAYISSGGGITYFPDTVQGRFTVSRDNAKNTLYLQMNSLKSEDTAIYYCAAHYFGSSGPFAYWGQGTLVTVSA VL: DIQMTQSPASLSASVGETVTITCRASENIFSYLAWYQQKQGKSPQLLVYNTKTLAEGVPSRFSGSGSGTQFSLKINSLQPEDFGSYYCQHHYGTPFTFGSGTKLEIK
EC50 / nM: 0.14

BINDER: antibody MAb5 (antibody, IgG1, V domains shown, Murine monoclonal from hybridoma, IgG1, kappa) VH: ELQLVESGGVLVKPGGSLKLSCAASGFAFSSYDMSWVRQTPEKRLEWVTYINSGGGITYYPDTVKGRFTISRDNARNTLYLQMSSLKSEDTAIYYCTAHYFGSSGPFAYWGQGTLVTVSA VL: DIQMTQSPASLSASVGETVTITCRASENIYSYLAWYQQKQGKSPQLLVYNAKTLTEGVPSRFSGSGSGTQFSLKINSLQPEDFGSYYCQHHYGTPFTFGSGTKLEIK
EC50 / nM: 0.4

As a next step, examine the binder that follows.
Incoming: Answer with reported EC50 of antibody MAb4 (antibody, IgG1, V domains shown, Murine monoclonal from hybridoma, IgG1, kappa) VH: EVQLVESGGGLVKPGGSLKLSCAASGFTFSSYDMSWVRQTPEKRLEWVAFISSYGGRTYYADTVKGRFTISRDNAKNTLYLQMSSLKSEDTAMFYCAAHYFGTSGPFAYWGQGTLVTVSA VL: DIQMTQSPASLSASVGETVTITCRASENIYSYFAWYQQKQGKSPQLLVYNAKILAEGVPSRFSGSGSGTQFSLKINSLQPEDFGTYYCQHHYGIPFTFGSGTKLELK
Outgoing: 0.08
